Where a name gives a salt, the structure may show the parent alone.
Measured parameter: melting point

Example entries begin here.
Compound | Recorded value
O=C(/C=C/c1ccccc1F)NCc1cccnc1 | 115 to 116 °C
O=C(/C=C/c1cc(F)ccc1F)NCCn1ccnc1 | 118 to 120 °C
O=C(/C=C/c1ccccc1F)NCCc1ccccn1 (as salt: hydrochloride) | 86 to 87 °C

// for each compound in input: emit melting point
1. Cl.O=C(/C=C/c1ccccc1F)NCCCN1CC[S+]([O-])CC1
2. Cl.O=C(/C=C/c1ccccc1F)NCCCNC1CCCCC1
3. Cl.O=C(/C=C/c1ccc(F)cc1)NCCCN1CCS(=O)(=O)CC1
4. O=C(/C=C/c1ccc(F)cc1)NCCCN1CCSCC1
5. C/C(=C\c1ccc(F)cc1)C(=O)NCCCN1CCOCC1
6. Cl.O=C(/C=C/c1ccccc1C(F)(F)F)NCCCN1CCOCC1

Result ::
1: 182 to 183 °C; 2: 227 to 228 °C; 3: 247 to 248 °C; 4: 121 to 122 °C; 5: 78 to 79 °C; 6: 197 to 198 °C

# per-item lookup of melting point; items listed below
1. O=C(/C=C/c1ccccc1F)Nc1ccc(-c2ccno2)cc1
2. O=C(/C=C/c1c(F)cccc1F)NCCCN1CCOCC1
3. O=C(/C=C/c1ccccc1F)NCCCN1CCN(C2CCCCC2)CC1
4. C/C(=C\c1ccccc1F)C(=O)NCCCN1CC[S+]([O-])CC1.Cl
5. O=C(/C=C/c1ccccc1F)NCCn1ccc2ccccc21
6. O=C(/C=C/c1ccccc1F)NCc1cccc(N2CC[S+]([O-])CC2)c1
7. O=C(/C=C/c1ccccc1F)Nc1ccc(-c2ccn[nH]2)cc1
8. Cl.O=C(/C=C/c1cccc(C(=O)O)c1)NCCn1ccnc1

Result ::
204 to 206 °C
75 to 76 °C
84 to 85 °C
180 to 181 °C
96 to 98 °C
156 to 157 °C
116 to 118 °C
195 to 197 °C

Quick batch: melting point for everything below.
1. O=C(/C=C/c1ccccc1F)NCCN1CCCCC1
2. O=C(/C=C/c1ccc(F)c(F)c1)NCCCN1CCOCC1
3. O=C(/C=C/c1ccccc1F)Nc1cccc(-c2ccno2)c1
4. CN1CCN(CCCNC(=O)/C=C/c2ccccc2F)CC1 (as salt: hydrochloride) [Compound 15, dihydrochloride]
5. CN(C)CCCCNC(=O)/C=C/c1ccccc1F.Cl
6. O=C(/C=C/c1ccccc1F)NCCN1CCOCC1
7. O=C(/C=C/c1cccc(F)c1)NCCCN1CCOCC1
8. O=C(/C=C/c1ccc(F)cc1F)NCCn1ccnc1

Result ::
1: 84 to 85 °C; 2: 127 to 128 °C; 3: 185 to 187 °C; 4: 133 to 138 °C; 5: 107 to 108 °C; 6: 112 to 113 °C; 7: 80 to 81 °C; 8: 113 to 115 °C

Please give melting point for each item listed below.
1. O=C(O)CCNC(=O)/C=C/c1ccccc1F
2. O=C(/C=C/c1cc(F)ccc1F)NCCCN1CCOCC1
3. O=C(/C=C/c1ccccc1F)NCCn1cccn1

Result ::
["193 to 195 °C", "71 to 72 °C", "124 to 126 °C"]
